pIC50 listing for selected compounds.
# target: human IL-23R (Homo sapiens)
# Sequence (Q5VWK5 22-629): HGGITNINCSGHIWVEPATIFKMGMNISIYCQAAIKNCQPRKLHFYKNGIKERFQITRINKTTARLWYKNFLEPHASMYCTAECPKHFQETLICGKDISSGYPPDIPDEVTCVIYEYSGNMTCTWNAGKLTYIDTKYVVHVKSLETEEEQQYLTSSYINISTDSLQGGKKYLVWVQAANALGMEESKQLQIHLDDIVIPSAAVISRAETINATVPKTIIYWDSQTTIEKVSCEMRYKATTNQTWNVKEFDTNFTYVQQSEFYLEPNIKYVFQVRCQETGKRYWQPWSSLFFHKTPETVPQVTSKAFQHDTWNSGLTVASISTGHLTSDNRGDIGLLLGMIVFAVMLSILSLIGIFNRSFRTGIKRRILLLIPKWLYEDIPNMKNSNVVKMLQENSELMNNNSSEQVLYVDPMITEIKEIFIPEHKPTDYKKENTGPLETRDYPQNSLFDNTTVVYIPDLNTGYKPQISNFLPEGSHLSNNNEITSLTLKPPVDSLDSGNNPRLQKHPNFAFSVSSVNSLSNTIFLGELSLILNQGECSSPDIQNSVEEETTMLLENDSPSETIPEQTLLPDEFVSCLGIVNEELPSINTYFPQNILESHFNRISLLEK
*1 amine or outer side, *2 acyl side, *3 side chain or, on linkers, in order; H or OH if unused. Where a SMILES comes first, the peptide text is derived from it. Bridges are numbered along the chain shown (N, C = ends). [ ]: non-standard residue; d: D form. 2Nal = N[C@@H](Cc1ccc2ccccc2c1)C(=O)O; AEF = NCCOc1ccc(C[C@H](N)C(=O)O)cc1; X1 = O=C(Cc1ccc(CN[*:1])cc1)[*:2]; 3Pal = N[C@@H](Cc1cccnc1)C(=O)O; αMeL = CC(C)C[C@](C)(N)C(=O)O; Dab = NCC[C@H](N)C(=O)O
Quick note: pIC50 values are minus log10 of concentrations in mol/L.

[
  {
    "compound": "CNC(=O)[C@H](Cc1cccnc1)NC(=O)[C@H](Cc1c[nH]cn1)NC(=O)[C@@H]1CCC(=O)NCc2ccc(cc2)CC(=O)N[C@@H](CO)C(=O)N[C@H]2CCC(=O)NCC[C@H](NC(=O)[C@H](CCC(N)=O)NC(=O)[C@H](Cc3c[nH]c4ccccc34)NC2=O)C(=O)N[C@@H](Cc2ccc(OCCN)cc2)C(=O)N[C@@H](Cc2ccc3ccccc3c2)C(=O)N[C@@](C)(CC(C)C)C(=O)N1 [Compound 34] ([X1]SEWQ[Dab][AEF][2Nal][αMeL]EH[3Pal]-NHMe; lactam 3-6, N-10)",
    "observable": "pIC50",
    "testValue": 10.89
  }
]

Shifting focus to the compound that follows.
Exercise: # get_value(readout= pIC50, system= human IL-23R (Homo sapiens)) for CNC(=O)[C@H](Cc1cccnc1)NC(=O)[C@H](CO)NC(=O)[C@@H]1CCC(=O)NCc2ccc(cc2)CC(=O)N[C@@H](C)C(=O)N[C@H]2CCC(=O)NCC[C@H](NC(=O)[C@H](CCC(N)=O)NC(=O)[C@H](Cc3c[nH]c4ccccc34)NC2=O)C(=O)N[C@@H](Cc2ccc(OCCN)cc2)C(=O)N[C@@H](Cc2ccc3ccccc3c2)C(=O)N[C@@](C)(CC(C)C)C(=O)N1 [Compound 40] ([X1]AEWQ[Dab][AEF][2Nal][αMeL]ES[3Pal]-NHMe; lactam 3-6, N-10)
Solution: 10.72
